- TESTED_TARGET: SHP2-C SH2;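 also: peptide library displayed on the E. coli surface as eCPX fusions, selected cells deep-sequenced, score is each peptide's frequency after selection divided by its frequency in the input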
- MEASUREMENT_NOTES: SH2 binding enrichment of the phosphorylated peptide, bacterial display (enrichment ratio); higher = better substrate or ligand; peptides without Tyr show the background
Each record here notes measured SH2 binding enrichment.
Provide a numeric answer; units are not to be included.

PRIMARY_SEQUENCE	REPORTED
DPYHVYIKNHV [KCNE3_Y95_R99H]	0.779
VECRVYAEDPY [PCCA_Y401]	0.658
WQQQSYLDSGI [CTNNB1_Y30]	0.649

Qu. State the recorded SH2 binding enrichment for this entry: GSTLSYFGLAA [P2RX7_Y343]
Ans. 0.962

Qu. State the recorded SH2 binding enrichment for this entry: DNEALYDICFR [TUBB2B_Y208]
Ans. 0.627

Qu. State the recorded SH2 binding enrichment for this entry: VVQGIYGFHHF [UFSP2_Y285_YF]
Ans. 0.923

Qu. State the recorded SH2 binding enrichment for this entry: ISDDNYGRIRL [ARCN1_Y310_K309N]
Ans. 0.77

Qu. State the recorded SH2 binding enrichment for this entry: PLDGESFTLQI [TP53_Y327_Y327S]
Ans. 0.706
